Target: human μ-opioid receptor (Homo sapiens, UniProt P35372)
Sequence (P35372 whole entry): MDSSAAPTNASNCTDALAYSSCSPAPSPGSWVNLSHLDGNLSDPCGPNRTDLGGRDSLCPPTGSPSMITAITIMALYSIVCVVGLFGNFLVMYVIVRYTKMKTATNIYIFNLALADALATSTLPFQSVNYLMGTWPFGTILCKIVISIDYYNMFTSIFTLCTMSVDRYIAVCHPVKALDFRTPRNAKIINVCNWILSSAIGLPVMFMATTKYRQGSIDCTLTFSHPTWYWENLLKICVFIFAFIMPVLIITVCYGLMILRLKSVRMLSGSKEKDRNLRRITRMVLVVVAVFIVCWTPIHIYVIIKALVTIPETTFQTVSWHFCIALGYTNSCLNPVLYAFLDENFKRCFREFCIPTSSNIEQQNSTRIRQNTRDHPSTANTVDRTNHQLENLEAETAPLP
Assay: cell-based
Details: agonist response, cAMP (HTRF); recombinant CHO cells; 37° C., 10 min; three separate experiments
READOUT LABEL: EC50 (nM)
Answer in nM, number only, no unit symbol.

{"STRUCTURE SMILES STRING": "COc1ccc2c3c1O[C@H]1C(OC(=O)N(C)CCNC(=O)[C@H](CCCNC(=N)N)NC(C)=O)=CC[C@@]4(O)[C@@H](C2)N(C)CC[C@]314", "EC50 [nM]": 490}

Task: Quick check: EC50 of COc1ccc2c3c1O[C@H]1C(OC(=O)N(C)CCNC(=O)[C@H](CCCNC(=N)N)NC(=O)CC(=O)O)=CC[C@H]4[C@@H](C2)N(C)CC[C@]314 ?
Output: 1300

Task: Would you mind doing COc1ccc2c3c1O[C@H]1C(OC(=O)N(C)CCNC(=O)[C@H](CCCNC(=N)N)NC(=O)CC(=O)O)=CC[C@@]4(O)[C@@H](C2)N(C)CC[C@]314 as well?
Output: 1600

Task: Would you mind doing COc1ccc2c3c1O[C@H]1C(OC(=O)N(CCCCCC(=O)O)CCNC(=O)[C@H](CCCNC(=N)N)NC(C)=O)=CC[C@@]4(O)[C@@H](C2)N(C)CC[C@]314 as well?
Output: 2000

Task: Would you mind doing COc1ccc2c3c1O[C@H]1C(OC(=O)N(C)C[C@H](NC(=O)[C@H](CCCNC(=N)N)NC(C)=O)C(=O)N(C)CC(=O)O)=CC[C@@]4(O)[C@@H](C2)N(C)CC[C@]314 as well?
Output: 1800

---

Target: trypsin (Bos taurus, UniProt P00760)
Assay: In vitro trypsin-mediated release of drug from ketone-modified opioid prodrugs KC-3 to KC-6, effect of Compound 109
Conditions: bovine, trypsin from bovine pancreas, pH 8, Pro-drug trypsin half-life, h Average ± sd, 0.761 mM prodrug; 241 BAEE U trypsin/mL; 37° C.; no trypsin inhibitor
READOUT LABEL: half-life at 0.761 mM (h)
Answer in h, number only, no unit symbol.

These solved cases illustrate the format of a correct answer.
{"STRUCTURE SMILES STRING": "COc1ccc2c3c1O[C@H]1C(OC(=O)N(C)CCNC(=O)[C@H](CCCNC(=N)N)NC(=O)CC(=O)O)=CC[C@@]4(O)[C@@H](C2)N(C)CC[C@]314", "half-life at 0.761 mM (h)": 8.92}
{"STRUCTURE SMILES STRING": "COc1ccc2c3c1O[C@H]1C(OC(=O)N(CCCCCC(=O)O)CCNC(=O)[C@H](CCCNC(=N)N)NC(C)=O)=CC[C@@]4(O)[C@@H](C2)N(C)CC[C@]314", "half-life at 0.761 mM (h)": 1.2}

Task: Quick check: half-life at 0.761 mM of COc1ccc2c3c1O[C@H]1C(OC(=O)N(C)CCNC(=O)[C@H](CCCNC(=N)N)NC(=O)CC(=O)O)=CC[C@H]4[C@@H](C2)N(C)CC[C@]314 ?
Output: 6.35

---

Target: trypsin (Bos taurus)
Sequence (P00760 24-246): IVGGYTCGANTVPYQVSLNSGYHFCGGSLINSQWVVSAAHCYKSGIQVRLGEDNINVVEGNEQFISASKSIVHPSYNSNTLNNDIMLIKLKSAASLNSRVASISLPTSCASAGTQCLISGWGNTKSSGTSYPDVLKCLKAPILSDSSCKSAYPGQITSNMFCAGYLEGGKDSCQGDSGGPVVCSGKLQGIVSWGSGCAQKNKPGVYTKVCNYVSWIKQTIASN
Experiment: In vitro trypsin-mediated release of drug from ketone-modified opioid prodrugs KC-3 to KC-6, effect of Compound 109
Conditions: bovine, trypsin from bovine pancreas, pH 8, with Compound 109 (trypsin inhibitor), 2 µM, Pro-drug trypsin half-life, h Average ± sd, with trypsin inhibitor Compound 109 2 uM
READOUT LABEL: half-life at 0.761 mM
# answer = value followed by unit

Task: Quick check: half-life at 0.761 mM of COc1ccc2c3c1O[C@H]1C(OC(=O)N(C)CCNC(=O)[C@H](CCCNC(=N)N)NC(=O)CC(=O)O)=CC[C@@]4(O)[C@@H](C2)N(C)CC[C@]314 [Compound KC-3] ?
Output: 43.3 h

---

Molecular target: trypsin (Bos taurus, UniProt P00760)
Sequence (P00760 24-246): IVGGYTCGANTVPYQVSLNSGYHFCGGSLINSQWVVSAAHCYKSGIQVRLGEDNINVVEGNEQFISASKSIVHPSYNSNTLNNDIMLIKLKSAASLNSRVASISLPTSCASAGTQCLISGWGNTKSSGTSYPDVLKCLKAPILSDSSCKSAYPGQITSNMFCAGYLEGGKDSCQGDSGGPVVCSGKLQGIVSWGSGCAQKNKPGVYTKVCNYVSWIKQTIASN
Experiment: In vitro trypsin-mediated release of drug from ketone-modified opioid prodrugs KC-3 to KC-6, effect of Compound 109
Details: bovine, trypsin from bovine pancreas, pH 8, Pro-drug trypsin half-life, h Average ± sd, 0.761 mM prodrug; 4815 BAEE U trypsin/mL; 37° C.; no trypsin inhibitor
READOUT LABEL: half-life at 0.761 mM (min)
Answer in min, number only, no unit symbol.

Task: Quick check: half-life at 0.761 mM of COc1ccc2c3c1O[C@H]1C(OC(=O)N(C)CCNC(=O)[C@H](CCCNC(=N)N)NC(=O)CC(=O)O)=CC[C@H]4[C@@H](C2)N(C)CC[C@]314 [Compound KC-4] ?
Output: 18.9

---

Target: trypsin (Bos taurus, UniProt P00760)
Assay: In vitro IC50 of trypsin inhibitors, modified trypsin assay (Bergmeyer)
Assay type: biochemical
Conditions: trypsin inhibition; Table 7 (Example 19)
Quick reference for pIC50 among some compounds
The read-out pIC50 is expressed as -log10 of concentration in moles per litre.

Task: Quick check: pIC50 of CCOC(=O)N1CCN(C(=O)[C@H](CCCNC(=N)N)NS(=O)(=O)c2ccc3ccccc3c2)CC1 [Compound 101] ?
Output: 4.70

---

Target: human μ-opioid receptor (Homo sapiens, UniProt P35372)
READOUT LABEL: pIC50
The read-out pIC50 is expressed as -log10 of concentration in moles per litre.

Task: Fill in the recorded pIC50 for this molecule, with human μ-opioid receptor (Homo sapiens, UniProt P35372) as test system: COc1ccc2c3c1O[C@H]1C(OC(=O)N(C)CCNC(=O)[C@H](CCCNC(=N)N)NC(C)=O)=CC[C@@]4(O)[C@@H](C2)N(C)CC[C@]314
Output: 7.66

---

Biological target: trypsin (Bos taurus, UniProt P00760)
Sequence (P00760 24-246): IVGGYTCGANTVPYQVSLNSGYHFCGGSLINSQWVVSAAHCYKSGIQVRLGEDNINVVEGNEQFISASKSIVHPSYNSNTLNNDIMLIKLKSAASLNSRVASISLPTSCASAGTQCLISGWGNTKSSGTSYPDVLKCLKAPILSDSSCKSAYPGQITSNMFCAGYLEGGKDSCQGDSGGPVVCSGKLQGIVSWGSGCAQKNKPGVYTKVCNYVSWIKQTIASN
Assay: In vitro trypsin-mediated release of oxycodone from Compound KC-2, without or with Compound 109
Assay type: biochemical, bovine
Design: purchased Sigma-Aldrich T8003; host or cells: bovine pancreas
Settings: bovine, trypsin from bovine pancreas, pH 8; 0.761 mM KC-2; 0.0228 mg/mL trypsin; 37° C.; no trypsin inhibitor; read-out: Pro-drug trypsin half-life, h Average ± sd (converted)
Excerpt: The square symbols indicate the disappearance of Compound KC-2, and the triangle symbols depict the appearance of oxycodone, over time under the conditions described in this Example.
READOUT LABEL: half-life at 0.761 mM (h)
Answer in h, number only, no unit symbol.

Task: Quick check: half-life at 0.761 mM of COc1ccc2c3c1O[C@H]1C(OC(=O)N(C)CCNC(=O)[C@H](CCCNC(=N)N)NC(C)=O)=CC[C@@]4(O)[C@@H](C2)N(C)CC[C@]314 ?
Output: 5.64

---

Biological target: trypsin (Bos taurus)
Assay: In vitro trypsin-mediated release of oxycodone from Compound KC-2, without or with Compound 109
Type: biochemical, bovine
Set-up: purchased Sigma-Aldrich T8003; host or cells: bovine pancreas
Conditions: bovine, trypsin from bovine pancreas, pH 8, with Compound 109 (trypsin inhibitor) 2 µM ([…]); read-out: Pro-drug trypsin half-life, h Average ± sd (converted)
READOUT LABEL: half-life at 0.761 mM (h)
Answer in h, number only, no unit symbol.

Task: Quick check: half-life at 0.761 mM of COc1ccc2c3c1O[C@H]1C(OC(=O)N(C)CCNC(=O)[C@H](CCCNC(=N)N)NC(C)=O)=CC[C@@]4(O)[C@@H](C2)N(C)CC[C@]314 [Compound KC-2] ?
Output: 116
